# TESTED SYSTEM: Histone deacetylase 2 (Homo sapiens)
# Sequence (Q92769 whole entry): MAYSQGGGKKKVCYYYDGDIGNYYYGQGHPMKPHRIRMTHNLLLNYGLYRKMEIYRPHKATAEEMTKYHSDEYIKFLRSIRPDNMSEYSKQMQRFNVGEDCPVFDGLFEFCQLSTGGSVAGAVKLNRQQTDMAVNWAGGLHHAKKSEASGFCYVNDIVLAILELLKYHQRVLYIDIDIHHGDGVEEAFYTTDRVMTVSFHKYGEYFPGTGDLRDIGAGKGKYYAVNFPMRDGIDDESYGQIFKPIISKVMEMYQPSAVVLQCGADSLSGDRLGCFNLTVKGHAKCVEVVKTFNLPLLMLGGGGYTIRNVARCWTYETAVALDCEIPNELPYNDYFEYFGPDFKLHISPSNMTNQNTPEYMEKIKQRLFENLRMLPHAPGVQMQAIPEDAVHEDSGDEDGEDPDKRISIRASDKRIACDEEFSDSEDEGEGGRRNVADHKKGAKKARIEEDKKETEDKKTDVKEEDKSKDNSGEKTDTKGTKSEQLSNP
# TEST PROTOCOL: Inhibition of full-length recombinant human C-terminal GST tagged HDAC2 expressed in Sf9 insect cells using aminoluciferin peptide substrate at 100 nM preincubated for 3 hrs followed by substrate addition and measured after 30 mins by HDAC-Glo I/II chemiluminescence assay
# COND: time 3.5 hrs
MEASURED QUANTITY: inhibition (%)

Examples with answers:
Cc1csc(CCn2cc(CCC(=O)Nc3cc(-c4cccs4)ccc3N)nn2)n1: 30
Nc1ccc(-c2ccccc2)cc1NC(=O)CCc1cn(CC(=O)c2ccccc2)nn1: 18
Nc1ccc(-c2ccc(F)cc2)cc1NC(=O)c1cn(CCc2ccc(C(=O)O)cc2)nn1: 31
Nc1ccc(-c2ccccc2)cc1NC(=O)c1cn(CCc2cccc(-c3ccccc3)c2)nn1: 0
Nc1ccc(-c2ccccc2)cc1NC(=O)c1cn(CCC23CC4CC(CC(C4)C2)C3)nn1: 0

[P] Nc1ccc(-c2cccs2)cc1NC(=O)c1ccc(-c2cn(CCc3ccccc3[N+](=O)[O-])nn2)cc1
[Q] Nc1ccc(-c2ccccc2)cc1NC(=O)c1cn(-c2ccc(Br)cc2)nn1
[R] Nc1ccc(-c2cccnc2)cc1NC(=O)CCc1cn(-c2ccc([N+](=O)[O-])cc2)nn1
Challenge: Order the 3 compounds from highest to lowest inhibition. List labels; respect the requested ordering.
Response given: P, R, Q
(P: 33%, R: 2%, Q: 0%)
